# testMethodNotes: Fraction unbound in 10% rat plasma
# Format: ADME, cell-free
# conditionParameters: 10% plasma
quantity: fraction unbound

Sample records with fraction unbound:
inputSmiles: C[C@H](c1ccc(F)cc1)N1C(=O)O[C@](Cc2ccccc2)(c2nc3cc(-c4cccnc4)ccc3[nH]2)C1=O
quantity: fraction unbound
measuredNumber: 0.008
--
inputSmiles: C[C@H](c1ccc(F)cc1)N1C(=O)O[C@](Cc2ccccc2)(c2nc3cc(N4CCOCC4)ccc3[nH]2)C1=O
quantity: fraction unbound
measuredNumber: 0.065
--
inputSmiles: C[C@H](c1ccc(F)cc1)N1C(=O)O[C@](Cc2ccccc2)(c2nc3cc(C(F)(F)F)ccc3[nH]2)C1=O
quantity: fraction unbound
measuredNumber: 0.007
--
inputSmiles: C[C@H](c1ccc(F)cc1)N1C(=O)O[C@](Cc2ccccc2)(c2nc3c(C(F)(F)F)cccc3[nH]2)C1=O
quantity: fraction unbound
measuredNumber: 0.005
--
inputSmiles: C[C@H](c1ccc(F)cc1)N1C(=O)O[C@](Cc2ccccc2)(c2nc3c(NS(C)(=O)=O)cccc3[nH]2)C1=O
quantity: fraction unbound
measuredNumber: 0.064

P = C[C@H](c1ccc(F)cc1)N1C(=O)O[C@](Cc2ccccc2)(c2nc3cc(NS(C)(=O)=O)ccc3[nH]2)C1=O
Q = C[C@H](c1ccc(F)cc1)N1C(=O)O[C@](Cc2ccccc2)(c2nc3cc(Cl)ccc3[nH]2)C1=O
Req: Compare fraction unbound: is it lower for P or for Q ? // return label of chosen record
Resp: Q
(Q: 0.01, P: 0.064)

----------
# system: UniProtKB P10275
# Sequence (P10275 whole entry): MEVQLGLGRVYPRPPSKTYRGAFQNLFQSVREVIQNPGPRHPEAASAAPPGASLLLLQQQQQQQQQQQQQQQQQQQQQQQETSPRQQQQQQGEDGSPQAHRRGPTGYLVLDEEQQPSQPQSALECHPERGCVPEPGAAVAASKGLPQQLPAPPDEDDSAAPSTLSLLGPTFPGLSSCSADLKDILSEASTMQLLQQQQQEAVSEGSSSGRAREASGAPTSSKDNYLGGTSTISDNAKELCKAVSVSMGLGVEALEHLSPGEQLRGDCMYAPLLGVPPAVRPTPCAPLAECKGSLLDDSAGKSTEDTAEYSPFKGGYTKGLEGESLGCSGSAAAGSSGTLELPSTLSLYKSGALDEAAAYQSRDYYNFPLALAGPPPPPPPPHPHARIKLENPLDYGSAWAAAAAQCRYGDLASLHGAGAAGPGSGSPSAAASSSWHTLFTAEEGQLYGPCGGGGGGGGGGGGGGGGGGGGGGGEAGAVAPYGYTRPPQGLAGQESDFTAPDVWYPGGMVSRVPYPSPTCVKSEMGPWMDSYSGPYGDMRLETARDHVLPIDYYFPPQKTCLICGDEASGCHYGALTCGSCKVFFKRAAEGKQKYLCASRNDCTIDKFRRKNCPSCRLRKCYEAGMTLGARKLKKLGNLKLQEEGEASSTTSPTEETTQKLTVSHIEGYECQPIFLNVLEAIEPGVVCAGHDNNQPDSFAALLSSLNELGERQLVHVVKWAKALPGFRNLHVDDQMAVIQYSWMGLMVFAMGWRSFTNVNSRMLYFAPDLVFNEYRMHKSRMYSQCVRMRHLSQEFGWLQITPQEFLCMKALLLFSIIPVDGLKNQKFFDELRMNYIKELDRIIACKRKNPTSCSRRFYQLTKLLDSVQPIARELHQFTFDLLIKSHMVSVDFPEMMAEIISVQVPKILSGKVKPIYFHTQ
# testMethodNotes: Antagonist activity at human androgen receptor expressed in CHOK1 cells assessed as inhibition of D(-)-norgestrel-induced protein interaction with steroid receptor co-activator peptide after 24 hrs by beta-galactosidase reporter gene assay
quantity: IC50 (µM)

Sample records with IC50:
inputSmiles: C[C@H](c1ccc(F)cc1)N1C(=O)O[C@](Cc2ccccc2)(c2nc3cc(Cl)ccc3[nH]2)C1=O
IC50 / µM: 3.1
--
inputSmiles: C[C@H](c1ccc(F)cc1)N1C(=O)O[C@](Cc2ccccc2)(c2nc3cc(-c4cc[nH]n4)ccc3[nH]2)C1=O
IC50 / µM: 3.1
--
inputSmiles: Cc1nocc1-c1ccc2[nH]c([C@@]3(Cc4ccccc4)OC(=O)N([C@H](C)c4ccc(F)cc4)C3=O)nc2c1
IC50 / µM: 3.4
--
inputSmiles: C[C@H](c1ccc(F)cc1)N1C(=O)O[C@](Cc2ccccc2)(c2nc3cc(C(F)(F)F)ccc3[nH]2)C1=O
IC50 / µM: 3

A = C[C@H](c1ccc(F)cc1)N1C(=O)O[C@](Cc2ccccc2)(c2nc3c(NS(C)(=O)=O)cccc3[nH]2)C1=O
B = C[C@H](c1ccc(F)cc1)N1C(=O)O[C@](Cc2ccccc2)(c2nc3cc(N4CCOCC4)ccc3[nH]2)C1=O
C = C[C@H](c1ccc(F)cc1)N1C(=O)O[C@](Cc2ccccc2)(c2nc3cc(-c4cccnc4)ccc3[nH]2)C1=O
Req: Thanks in advance: please rank these 3 entries by IC50, highest to lowest. Could you list the labels in the order requested?
Resp: A, B, C

----------
# system: Glucocorticoid receptor (Homo sapiens)
# Sequence (P04150 whole entry): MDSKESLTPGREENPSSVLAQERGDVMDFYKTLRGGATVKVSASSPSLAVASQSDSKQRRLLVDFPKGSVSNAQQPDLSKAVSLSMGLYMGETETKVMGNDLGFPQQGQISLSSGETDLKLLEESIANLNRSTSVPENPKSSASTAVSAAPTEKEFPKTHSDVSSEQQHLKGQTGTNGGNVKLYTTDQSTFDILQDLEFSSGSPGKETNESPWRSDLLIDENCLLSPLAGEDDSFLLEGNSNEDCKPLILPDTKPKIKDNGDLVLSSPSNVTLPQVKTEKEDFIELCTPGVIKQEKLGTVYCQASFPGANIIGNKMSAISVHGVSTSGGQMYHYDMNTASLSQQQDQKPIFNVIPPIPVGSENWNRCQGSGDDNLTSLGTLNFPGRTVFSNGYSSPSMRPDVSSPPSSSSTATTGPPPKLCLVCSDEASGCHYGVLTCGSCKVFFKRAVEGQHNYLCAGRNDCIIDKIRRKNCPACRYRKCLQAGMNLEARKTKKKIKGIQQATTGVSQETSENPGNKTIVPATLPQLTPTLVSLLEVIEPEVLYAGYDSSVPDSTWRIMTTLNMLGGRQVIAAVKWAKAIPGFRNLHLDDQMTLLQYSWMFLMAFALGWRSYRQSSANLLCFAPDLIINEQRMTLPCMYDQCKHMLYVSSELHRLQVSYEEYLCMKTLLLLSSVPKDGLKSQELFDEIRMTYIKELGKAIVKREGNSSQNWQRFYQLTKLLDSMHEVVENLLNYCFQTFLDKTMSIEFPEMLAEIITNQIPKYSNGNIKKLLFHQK
# testMethodNotes: Antagonist activity at human glucocorticoid receptor expressed in CHOK1 cells assessed as inhibition of dexamethasone-induced protein interaction with steroid receptor co-activator peptide after overnight incubation by beta-galactosidase reporter gene assay
pIC50: −log10 of the molar value.
quantity: pIC50

A = C[C@H](c1ccc(F)cc1)N1C(=O)O[C@](Cc2ccccc2)(c2nc3cc(Cl)ccc3[nH]2)C1=O
B = C[C@H](c1ccc(F)cc1)N1C(=O)O[C@](Cc2ccccc2)(c2nc3c(NS(C)(=O)=O)cccc3[nH]2)C1=O
Req: In the pair A and B , the larger recorded pIC50 belongs to which? // return label of chosen record
Resp: A

----------
# testMethodNotes: Plasma clearance in Wistar han rat at 2 mg/kg, po and 1 mg/kg, iv
# Type: ADME, organism-based
quantity: clearance (mL/min/kg)

Sample records with clearance:
inputSmiles: C[C@H](c1ccc(F)cc1)N1C(=O)O[C@](Cc2ccccc2)(c2nc3cc(C(F)(F)F)ccc3[nH]2)C1=O
clearance / mL/min/kg: 33

inputSmiles: C[C@H](c1ccc(F)cc1)N1C(=O)O[C@](Cc2ccccc2)(c2nc3cc(-c4cccnc4)ccc3[nH]2)C1=O
clearance / mL/min/kg: 80

inputSmiles: C[C@H](c1ccc(F)cc1)N1C(=O)O[C@](Cc2ccccc2)(c2nc3cc(NS(C)(=O)=O)ccc3[nH]2)C1=O
clearance / mL/min/kg: 32

inputSmiles: C[C@H](c1ccc(F)cc1)N1C(=O)O[C@](Cc2ccccc2)(c2nc3c(C(F)(F)F)cccc3[nH]2)C1=O
clearance / mL/min/kg: 23

inputSmiles: C[C@H](c1ccc(F)cc1)N1C(=O)O[C@](Cc2ccccc2)(c2nc3cc(-c4cc[nH]n4)ccc3[nH]2)C1=O
clearance / mL/min/kg: 19

inputSmiles: C[C@H](c1ccc(F)cc1)N1C(=O)O[C@](Cc2ccccc2)(c2nc3c(NS(C)(=O)=O)cccc3[nH]2)C1=O
clearance / mL/min/kg: 55

inputSmiles: C[C@H](c1ccc(F)cc1)N1C(=O)O[C@](Cc2ccccc2)(c2nc3cc(N4CCOCC4)ccc3[nH]2)C1=O
clearance / mL/min/kg: 67

A = C[C@H](c1ccc(F)cc1)N1C(=O)O[C@](Cc2ccccc2)(c2nc3cc(Cl)ccc3[nH]2)C1=O
B = Cc1nocc1-c1ccc2[nH]c([C@@]3(Cc4ccccc4)OC(=O)N([C@H](C)c4ccc(F)cc4)C3=O)nc2c1
Req: Compare clearance: is it lower for A or for B ? // return label of chosen record
Resp: B

----------
# system: Glucocorticoid receptor (Homo sapiens)
# testMethodNotes: Antagonist activity at human glucocorticoid receptor expressed in CHOK1 cells assessed as inhibition of dexamethasone-induced protein interaction with steroid receptor co-activator peptide after overnight incubation by beta-galactosidase reporter gene assay
pIC50: −log10 of the molar value.
quantity: pIC50

inputSmiles: C[C@H](c1ccc(F)cc1)N1C(=O)O[C@](Cc2ccccc2)(c2nc3cc(-c4cccnc4)ccc3[nH]2)C1=O
measuredNumber: 5.51

1 = Cc1nocc1-c1ccc2[nH]c([C@@]3(Cc4ccccc4)OC(=O)N([C@H](C)c4ccc(F)cc4)C3=O)nc2c1
2 = C[C@H](c1ccc(F)cc1)N1C(=O)O[C@](Cc2ccccc2)(c2nc3cc(N4CCOCC4)ccc3[nH]2)C1=O
Req: In the pair 1 and 2 , the larger recorded pIC50 belongs to which? // return label of chosen record
Resp: 1

----------
# system: Estrogen receptor (Homo sapiens, UniProt P03372)
# Sequence (P03372 whole entry): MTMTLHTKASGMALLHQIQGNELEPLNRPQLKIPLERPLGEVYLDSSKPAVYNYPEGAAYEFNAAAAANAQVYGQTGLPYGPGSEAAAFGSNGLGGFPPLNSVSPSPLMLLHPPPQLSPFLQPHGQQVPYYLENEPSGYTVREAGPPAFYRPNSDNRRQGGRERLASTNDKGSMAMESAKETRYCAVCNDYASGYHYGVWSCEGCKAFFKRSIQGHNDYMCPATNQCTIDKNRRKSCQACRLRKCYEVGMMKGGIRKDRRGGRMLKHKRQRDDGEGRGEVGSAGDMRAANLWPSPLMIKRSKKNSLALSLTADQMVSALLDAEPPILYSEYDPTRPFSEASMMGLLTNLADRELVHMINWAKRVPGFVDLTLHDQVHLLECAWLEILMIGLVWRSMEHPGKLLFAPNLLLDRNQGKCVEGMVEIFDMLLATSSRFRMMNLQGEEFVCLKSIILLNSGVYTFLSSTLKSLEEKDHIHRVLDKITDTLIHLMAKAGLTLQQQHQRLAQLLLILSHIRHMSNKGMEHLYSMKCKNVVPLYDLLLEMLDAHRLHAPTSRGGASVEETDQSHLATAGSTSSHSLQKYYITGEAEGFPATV
# testMethodNotes: Antagonist activity at human estrogen receptor alpha expressed in CHOK1 cells assessed as inhibition of beta-estradiol-induced protein interaction with steroid receptor co-activator peptide after overnight incubation by beta-galactosidase reporter gene assay
pIC50: −log10 of the molar value.
quantity: pIC50

Sample records with pIC50:
inputSmiles: C[C@H](c1ccc(F)cc1)N1C(=O)O[C@](Cc2ccccc2)(c2nc3cc(NS(C)(=O)=O)ccc3[nH]2)C1=O
pIC50: 4.77

inputSmiles: C[C@H](c1ccc(F)cc1)N1C(=O)O[C@](Cc2ccccc2)(c2nc3cc(-c4cc[nH]n4)ccc3[nH]2)C1=O
pIC50: 5.20

A = C[C@H](c1ccc(F)cc1)N1C(=O)O[C@](Cc2ccccc2)(c2nc3cc(N4CCOCC4)ccc3[nH]2)C1=O
B = C[C@H](c1ccc(F)cc1)N1C(=O)O[C@](Cc2ccccc2)(c2nc3cc(Cl)ccc3[nH]2)C1=O
Req: In the pair A and B , the larger recorded pIC50 belongs to which? // return label of chosen record
Resp: B

a = Cc1nocc1-c1ccc2[nH]c([C@@]3(Cc4ccccc4)OC(=O)N([C@H](C)c4ccc(F)cc4)C3=O)nc2c1
b = C[C@H](c1ccc(F)cc1)N1C(=O)O[C@](Cc2ccccc2)(c2nc3cc(C(F)(F)F)ccc3[nH]2)C1=O
Req: Compare pIC50: is it lower for a or for b ? // return label of chosen record
Resp: a
(a: 5.31, b: 5.52)

----------
# testMethodNotes: Metabolic stability in rat liver microsomes assessed as compound remaining at 1 uM after 0.5 hrs
# Assay type: ADME
# conditionParameters: read-out: Stability
quantity: remaining at 0.5 h, 1 µM (%)

Sample records with remaining at 0.5 h, 1 µM:
inputSmiles: C[C@H](c1ccc(F)cc1)N1C(=O)O[C@](Cc2ccccc2)(c2nc3cc(NS(C)(=O)=O)ccc3[nH]2)C1=O
readingUnit: %
remaining at 0.5 h, 1 µM: 80
--
inputSmiles: C[C@H](c1ccc(F)cc1)N1C(=O)O[C@](Cc2ccccc2)(c2nc3cc(-c4ccncc4)ccc3[nH]2)C1=O
readingUnit: %
remaining at 0.5 h, 1 µM: 23
--
inputSmiles: C[C@H](c1ccc(F)cc1)N1C(=O)O[C@](Cc2ccccc2)(c2nc3c(-c4cncnc4)cccc3[nH]2)C1=O
readingUnit: %
remaining at 0.5 h, 1 µM: 19
--
inputSmiles: C[C@H](c1ccc(F)cc1)N1C(=O)O[C@](Cc2ccccc2)(c2nc3c(-c4cnn(C)c4)cccc3[nH]2)C1=O
readingUnit: %
remaining at 0.5 h, 1 µM: 18
--
inputSmiles: C[C@H](c1ccc(F)cc1)N1C(=O)O[C@](Cc2ccccc2)(c2nc3cc(-c4cn[nH]c4)ccc3[nH]2)C1=O
readingUnit: %
remaining at 0.5 h, 1 µM: 63
--
inputSmiles: C[C@H](c1ccc(F)cc1)N1C(=O)O[C@](Cc2ccccc2)(c2nc3c(Cl)cccc3[nH]2)C1=O
readingUnit: %
remaining at 0.5 h, 1 µM: 6

a = Cc1nocc1-c1ccc2[nH]c([C@@]3(Cc4ccccc4)OC(=O)N([C@H](C)c4ccc(F)cc4)C3=O)nc2c1
b = C[C@H](c1ccc(F)cc1)N1C(=O)O[C@](Cc2ccccc2)(c2nc3ccccc3[nH]2)C1=O
Req: In the pair a and b , the larger recorded remaining at 0.5 h, 1 µM belongs to which? // return label of chosen record
Resp: a
(a: 54%, b: 8%)
